- Target desc: LSD1 demethylase (Homo sapiens)
- Protocol description: LSD1 demethylase inhibition assay
- Stated conditions: LSD1 inhibition IC50, as quoted in the docking section
Measured quantity: pIC50
To interpret pIC50, take it as minus log10 of a concentration measured in moles per litre.

Param item = C=CCNc1nnc(-c2cc(-c3nnc(NCC=C)s3)cc(-c3nnc(NCC=C)s3)c2)s1 ; retrieve measured pIC50.
7.33

How about S=c1[nH]nc(-c2cc(-c3n[nH]c(=S)n3Cc3ccccc3)cc(-c3n[nH]c(=S)n3Cc3ccccc3)c2)n1Cc1ccccc1 ?
7.33

Follow-up item: S=c1[nH]nc(-c2cc(-c3n[nH]c(=S)n3-c3ccccc3)cc(-c3n[nH]c(=S)n3-c3ccccc3)c2)n1-c1ccccc1
7.19
